- Test system: Sodium/glucose cotransporter 1 (Homo sapiens)
- Protocol details: Inhibition of human SGLT1 expressed in xenopus laevis oocyte assessed as inhibition of methyl-alpha-D-[14C]glucopyranoside uptake at 75 pmol after 1 hr relative to control
Activity calls are given as the source filed them. The rule behind the calls is not given here. Peptide text beside a SMILES is read from it.
Pick one and only one: label 1 (active), label 0 (inactive)

Exercise: Short answer needed: outcome of this test for CC(=O)N[C@@H](CCC(N)=O)C(=O)N[C@@H](CCC(=O)O)C(=O)N1CCC[C@H]1C(=O)O (Ac-Gln-Glu-Pro-OH) ?
Key: label 1

Others:
Exercise: Lab log entry: CC(=O)N[C@@H](CCC(N)=O)C(=O)N[C@@H](CS)C(=O)N1CCC[C@H]1C(=O)O (Ac-Gln-Cys-Pro-OH) — outcome as called in the assay?
Key: label 0

Exercise: In this assay, the call recorded for CC(=O)N1CCC[C@H]1C(=O)N[C@H](C(=O)N[C@@H](CCC(N)=O)C(=O)O)[C@@H](C)O (Ac-Pro-Thr-Gln-OH) was what?
Key: label 1

Exercise: Per the assay record, what outcome was assigned to CC(=O)N1CCC[C@H]1C(=O)N[C@@H](CC(C)C)C(=O)N[C@@H](CCC(N)=O)C(=O)O (Ac-Pro-Leu-Gln-OH) ?
Key: label 1

###

- Test system: Sodium/glucose cotransporter 1 (Homo sapiens)
- Protocol details: Inhibition of human SGLT1 expressed in xenopus laevis oocyte assessed as inhibition of methyl-alpha-D-[14C]glucopyranoside uptake at 75 pmol after 1 hr relative to control
Active and inactive are the calls of the source. No cut-off for these calls is given here. Peptide text beside a SMILES is read from it.
Reported metric: Activity

Sample answers from the record:
Exercise: Quick one: Activity of NC(=O)CC[C@H](N)C(=O)N[C@@H](CS)C(=O)N1CCC[C@H]1C(=O)O (H-Gln-Cys-Pro-OH) ?
Key: Active

Exercise: # query: Activity of entry NC(=O)CC[C@H](N)C(=O)N[C@@H](CO)C(=O)N1CCC[C@H]1C(=O)O (H-Gln-Ser-Pro-OH)
Key: Active

Exercise: Can you look up the measured Activity of CC(=O)N1CCC[C@H]1C(=O)N1CCC[C@H]1C(=O)N[C@@H](CCC(N)=O)C(=O)O (Ac-Pro-Pro-Gln-OH) for me?
Key: Active

Exercise: Suppose we examine the compound CC(=O)N1CCC[C@H]1C(=O)NCC(=O)N[C@@H](CCC(N)=O)C(=O)O (Ac-Pro-Gly-Gln-OH) ; what Activity value has been reported?
Key: Active

// next entry
Exercise: Request the reported Activity associated with CC(=O)N1CCC[C@H]1C(=O)N[C@@H](CO)C(=O)N[C@@H](CCC(N)=O)C(=O)O (Ac-Pro-Ser-Gln-OH)
Key: 44%
